- ASSAYED_TARGET: human GcgR (Homo sapiens, UniProt P47871)
- Sequence (P47871 26-477): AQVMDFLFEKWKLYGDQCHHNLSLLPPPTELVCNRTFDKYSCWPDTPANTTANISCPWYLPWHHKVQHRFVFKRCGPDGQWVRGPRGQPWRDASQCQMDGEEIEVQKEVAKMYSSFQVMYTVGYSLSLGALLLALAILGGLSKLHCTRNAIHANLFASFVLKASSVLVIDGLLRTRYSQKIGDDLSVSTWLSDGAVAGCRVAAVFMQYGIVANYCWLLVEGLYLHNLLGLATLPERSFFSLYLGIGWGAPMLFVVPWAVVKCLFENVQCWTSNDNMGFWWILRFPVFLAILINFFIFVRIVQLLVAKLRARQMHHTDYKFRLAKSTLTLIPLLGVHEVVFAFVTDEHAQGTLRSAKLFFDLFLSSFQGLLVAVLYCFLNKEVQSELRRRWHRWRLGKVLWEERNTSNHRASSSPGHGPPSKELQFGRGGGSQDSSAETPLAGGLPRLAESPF
- ASSAY_PROCEDURE: Functional cAMP activity in the presence of 1% HSA
- Type: cell-based
- TEST_CONTEXT: read-out: cAMP Rel EC50, hGcgR
Starred links: 1 amine or outer side, 2 acyl side, 3 side chain; linkers in the order of their positions; H or OH if unused. Non-standard residues stand in square brackets, D forms with d. Groups on a side chain read outwards from the residue. No end group written: not given here. *: point of attachment. C18 diacid = O=C(O)CCCCCCCCCCCCCCCCC(=O)*; αMePhe(2-F) = C[C@](N)(Cc1ccccc1F)C(=O)O; γGlu = O=C(O)[C@H](CCC(=O)[*:2])N[*:1]; αMe4Pal = C[C@](N)(Cc1ccncc1)C(=O)O; αMeY = C[C@](N)(Cc1ccc(O)cc1)C(=O)O; 4Pal = N[C@@H](Cc1ccncc1)C(=O)O; αMeL = CC(C)C[C@](C)(N)C(=O)O; αMeS = C[C@](N)(CO)C(=O)O; Orn = NCCC[C@H](N)C(=O)O; AEEA = NCCOCCOCC(=O)O; Aib = CC(C)(N)C(=O)O
Here the recorded EC50 is given for each entry.
QUANTITY: EC50 (nM)

{"columns": ["SUBSTANCE", "QUANTITY", "ENDPOINT_RESULT"],
 "data": [
  ["Y[Aib]QGT[αMePhe(2-F)]TSD[4Pal][αMeS]I[αMeL]LD[Orn]K([γGlu-γGlu-C18 diacid])AQ[Aib][Orn]FI[dE][αMeY]LQEGGPSSGEPPPEGTE-NH2 [Example 503]", "EC50", 233],
  ["H-Y[Aib]QGTFTSD[4Pal]SQ[αMeL]LD[Orn]K([γGlu-γGlu-C18 diacid])AQ[αMe4Pal]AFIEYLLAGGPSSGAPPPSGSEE-NH2 [Example 1056]", "EC50", 1650],
  ["H-Y[Aib]QGT[αMePhe(2-F)]TSD[4Pal][αMeS]I[αMeL]LD[Orn]K([AEEA-γGlu-C18 diacid])AQ[αMe4Pal]EFI[dE][αMeY]LIEGGPSSGAPPPEGE-NH2 [Example 1148]", "EC50", 175]
]}
